- tested system: human plasma-derived Factor IXa (human, UniProt P00740 47-191; P00740 227-461)
- Sequence (P00740 47-191, chain 1 of 2): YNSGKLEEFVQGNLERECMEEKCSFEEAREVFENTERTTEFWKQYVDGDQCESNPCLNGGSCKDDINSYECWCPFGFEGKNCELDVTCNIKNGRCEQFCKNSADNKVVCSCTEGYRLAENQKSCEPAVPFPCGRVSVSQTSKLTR
- Sequence (P00740 227-461, chain 2 of 2): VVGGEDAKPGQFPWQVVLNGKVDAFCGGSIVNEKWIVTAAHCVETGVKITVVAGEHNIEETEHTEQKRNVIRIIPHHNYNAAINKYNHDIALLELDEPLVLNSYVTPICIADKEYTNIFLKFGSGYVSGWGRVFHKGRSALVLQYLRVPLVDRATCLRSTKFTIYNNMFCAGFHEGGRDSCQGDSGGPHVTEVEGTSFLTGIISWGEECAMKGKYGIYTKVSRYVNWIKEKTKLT
- assay method text: cell-based or functional assay
assay endpoint: Stimulation Index, FXa generation assay, 800 nM OA antibody (fold)

{"columns": ["binder", "assay value"],
 "data": [
  ["one-armed (OA) mAb11-1094 (antibody, V domains shown) VH: EVQLVESGGGLVQPGRSLKLSCAASGFTFHDYAMHWVRQVPGKGLEWVSGISWKGDIGGYVDSVKGRFTISRDNAKNSLYLQMNSLRAEDTALYYCAKSYGSGSFYNAFDSWGQGTLVTVSS VL: DIQMTQSPSTLSASVGDRVTITCRASQSISSWLAWYQQKPGKAPKFLIYKASKLERGTPSRFSGSGSGTEFTLTISSLQPDDFATYYCLEYSSYIRTFGQGTKVEIK", 4080],
  ["one-armed (OA) mAb11-1273 (antibody, V domains shown) VH: EVQLVESGGGLVQPGRSLRLSCAASGFTFHDYAMHWVRQVPGKGLEWVSGISWKGDIGGYVDSVKGRFTISRDNEKNSLYLQMNSLRAEDTALYYCVKSYGSGSFYNAFDSWGQGTLVTVSS VL: DIQMTQSPSTLSASVGDRVTITCRASQSISSWLAWYQQKPGKAPKFLIYKASRLDRGTPSRFSGSGSGTEFSLTISELQPDDFATYYCLEYSSYIRTFGQGTKVEIK", 1540],
  ["one-armed (OA) mAb11-0932 (antibody, V domains shown) VH: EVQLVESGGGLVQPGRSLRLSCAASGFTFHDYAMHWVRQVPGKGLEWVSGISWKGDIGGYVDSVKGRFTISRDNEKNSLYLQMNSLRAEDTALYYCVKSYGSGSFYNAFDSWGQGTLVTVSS VL: DIQMTQSPSTLSASVGDRVTITCRASQSISSWLAWYQQKPGKAPKFLIYKASRLDRGMPSRFSGSGSGTEFSLTISSLQPDDFATYYCLEYSSYIRTFGQGTKVEIK", 1690],
  ["one-armed (OA) mAb11-0174 (antibody, V domains shown) VH: EVQLVESGGGLVQPGRSLKLSCAASGFTFHDYAMHWVRQAPGKGLEWVSGISWKGDIGGYVDSVKGRFTISRDNAKNSLYLQMNSLRAEDTALYYCAKSYGSGSFYNAFDSWGQGTLVTVSS VL: DIQMTQSPSTLSASVGDRVTITCRASQSISSWLAWYQQKPGKAPKFLIYKASKLDRGTPSRFSGSGSGTEFTLTISSLQPDDFATYYCLEYSSYIRTFGQGTKVEIK", 3690]
]}
